Cited source: the EternaBench riboswitch data

# Tested on: MS2 coat protein
# Test name: apparent Kd, MS2 coat protein; higher = weaker binding; RNA-MaP array; FMN 200 µM where present
# Conditions used: ligand present: flavin mononucleotide; designed as: OFF switch for flavin mononucleotide
Class boundaries, taken from values of apparent Kd, are as follows: 0 = under 30 nM, 1 = from 30 nM up to 70 nM, 2 = 70 nM and over

Before answering, review these 10 worked examples.
Ordered residues | Group
UUUGAUAGCACAGGAUAUUGUCAUUUGAGUUGUCAAGAAGGGUGUACAUGAGGAUCACCCAUGUAAUGGUUGCCUCGCUGACUU | 2
GCUGGACAUGAGGAUCACCCAUGUGAGGAUAUCGGCUGGUACGUGUUGGCUGGCAUCUCGAGAAGGCACAUAGU | 1
GUAGUGUAUGUAGGAUAUGUGAAGGAAACAUUUACAGAAGGACAUGAGGAUCACCCAUGUAUUUCAGUCACCAAUGUGACUGAU | 1
GUGCAGGUAGGAUAUACGUGAGAGCCUUGUGGGCGUCUGGUACAUGAGGAUCACCCAUGUAGAAGGACCGGGCU | 2
AAAUCAGCAGGAUAUGCGAUGUUAUGCUAGAUAGCGGGACCACAUGAGGAUCACCCAUGUAGAAGGGCUAGAUA | 0
CCAUAAUUGAUCCAUUUUUACAACAUGAGGAUCACCCAUGUGCAGGAUAUCGUGAAAGUUAAAUACGAGAAGGGCAAGAACUGC | 2
CUAUAUAAUACCUCAUGUACAUGAGGAUCACCCAUGUUAACUUAGGAUAUAUUUAUAUUAAUAGAGUAGAAGGAAGUACUAUUU | 0
GGAUGACAAAGUCAUCCUAAACGAACAUGAGGAUCACCCAUGUAGGAUAUGCUACUCAAAGAGUAGCAGAAGGACAUGUGCCUU | 2
GAUCAACAUGAGGAUCACCCAUGUGAGGAUAUGAUACUAUGUACUUCGGUACAUAGUAUCAGAAGGCAUAUGAA | 2
CCACGACAUGAGGAUCACCCAUGUCAGGAUAUCCCUCAUUGUAUGAAAAUACAAUGAGGGAGAAGGGACGUGAC | 1

Consider the record given below.
Exam item: Field: class (apparent Kd) — entry: AGUGUGGGAGGAUAUACAUGAGGAUCACCCAUGUGAGUUGGCUCACAUGCUACGCUUCGUAGAAGGCCCAAAGA
Marked response: 2

* * *

# Tested on: MS2 coat protein
# Test name: apparent Kd, MS2 coat protein; higher = weaker binding; RNA-MaP array
# Conditions used: ligand present: flavin mononucleotide; designed as: OFF switch for flavin mononucleotide
Respond with Satisfied for apparent Kd values of 40 nM and above, Not satisfied for values below.

Ordered residues | Measurement target | Group
CAUUAUCGCGUUAGGAUAUGAACAAGAAAUCGGCUACAGAAGGAACAUGAGGAUCACCCAUGUAUGAUCAAGAC | MS2 coat protein | Not satisfied

Exam item: Check this sequence for apparent Kd at or above 40 nM: AGACCGGCUCAGGAUAUGUACAGGACAUACUCAACAGAAGGGAGUACAUGAGGAUCACCCAUGUCUGGGUAGAU
Marked response: Satisfied

Exam item: Same lookup for GAUUUACAUGAGGAUCACCCAUGUGAGGAUAUGCCGUACAUCGCGCUCUGAGCUAGUUGCAGAAGGCACAUGAU , please.
Marked response: Not satisfied

Exam item: Same lookup for ACAUGAGGAUCACCCAUGUUUGGGCAAAGAUUGAUUGACACGAGAAGGGCCCGCGUACGUCGUAGGCAGGAUAUCGAGUACCGG , please.
Marked response: Not satisfied

Exam item: Same lookup for GCUGGACAUGAGGAUCACCCAUGUGAGGAUAUGAGAAGUAUCAUGCACCCGAUCCAUCUCAGAAGGCACAGGUG , please.
Marked response: Satisfied

Exam item: Same lookup for AAACAGGAAGGAUAUACAUGAGGAUCACCCAUGUCAAAUAAAACAAAUAAGCAAGAAUGUAGAAGGACCAAAAU , please.
Marked response: Not satisfied

Exam item: Same lookup for ACAUGAGGAUCACCCAUGUGUCUCCUUUCCAUUACGAUCUUUAGAAGGGUCCGCAAACACUCUGGACAGGAUAUAAAGUAUGGC , please.
Marked response: Not satisfied

* * *

# System: MS2 coat protein
# Test name: apparent Kd, MS2 coat protein; higher = weaker binding; RNA-MaP array; FMN 200 µM where present
# Conditions used: ligand present: flavin mononucleotide; designed as: ON switch for flavin mononucleotide
Respond with criterion met for apparent Kd values of 60 nM and above, criterion not met for values below.

Ordered residues | Group
CCUGUCGCAUGAGGAUAUGGUCAGCUUUGCUGACCAGAAGGCAUGUCGAUAGACAUGAGGAUCACCCAUGUAGUAAAGACAGGA | criterion not met
GGAGCACACAUUAACAUGAGGAUCACCCAUGUCAAAAGACAUGAGGAUAUGGAUCCGAAAAGGAUCCAGAAGGCAUGGAGCUCC | criterion not met
CUCGAGUCAAGGCUCGCGAGUACACAGGAUAUGAAAAGUCACAUGAGGAUCACCCAUGUCCAAAAUCAGAAGGGUGAGACUAAG | criterion met
ACAUGAGGAUCACCCAUGUGGACAUAGGAUAUUGGUGAUCAGGCGUGUUAUACAGGAUAGGUCUGCGAGAAGGGUGUACGUUGC | criterion met
GUAUCUUACCAAGGAUAUUUAAGAUUAGUGUAGACAUGAGGAUCACCCAUGUGGCCUUAGUCACGGGAGAAGGUGGUUUGAUAC | criterion met
GGUCCAGCAUGAGGAUAUGGCACCUUAUUGGUGCCAGAAGGCAUGUCUAUAGACAUGAGGAUCACCCAUGUAAUAAAUUGGACC | criterion not met
CAUUCAAGCCAGAAGGAGUACACUACAUGAGGAUCACCCAUGUCUAAUACUAGGAUAUGGGCAUCUGGUAAUGUCUAAGGUGCG | criterion met

Consider the record given below.
Exam item: Check this sequence for apparent Kd at or above 60 nM: GUAGCUAUUAAAGGAUAUUCAUACCGGAAACGGACAUGAGGAUCACCCAUGUGGCGAAAGCCUUGGGAGAAGGUUAUUAGCUAC
Marked response: criterion not met

* * *

# System: MS2 coat protein
# Test name: apparent Kd, MS2 coat protein; higher = weaker binding; RNA-MaP array
# Conditions used: designed as: ON switch for flavin mononucleotide; no ligand
Readout label: apparent Kd (nM)
Respond with the bare value in nM.

Ordered residues | Reported measurement
AAACUACGACAUGAGGAUCACCCAUGUACUCCGCUAACUACACAGGAUAUAGUGAGGCCAGAGCUCUAGAAGGGUGUUAAUACG | 40.3

Exam item: Which value of apparent Kd has been reported for AGGCUAUGUGAGAAGGCCGAAUGCCUAUAGUGCGGAGGAUAUCAAUCAACAUGAGGAUCACCCAUGUAGCAAAUCGUAGUUCUC in the records?
Marked response: 84.3

Exam item: Same lookup for AUCUUAGGUGAGAAGGUGGACACAUGAGGAUCACCCAUGUUGAUGGUCUUGUAGCGUUUGCAAGCCAAGGAUAUCAUCUACGGC , please.
Marked response: 27.4

Exam item: Same lookup for GCUAGUAGAGAGAAGGAGCUUGAAUAUUUAGCGCUAGGAUAUCUUCGGUAGCCGUAGAGCAUACAUGAGGAUCACCCAUGUCCG , please.
Marked response: 52.7

Exam item: Same lookup for UCGGUACAUGAGGAUCACCCAUGUCGUCACAGAGCAGGAUAUUCAGGCUUCAGAGGUCGCGAAGAAGGGCUGGUGC , please.
Marked response: 11.9

Exam item: Same lookup for GCUACCACCGCAGGAUAUAAUCGGACACUCGUAGCGUUGCGAACAUGAGGAUCACCCAUGUCUAUUUAGAAGGGCGCAUGGGAU , please.
Marked response: 78.8

Exam item: Same lookup for AAUAAACAGUAGAAGGCUGAUACCUACAAAAGUCGAAGACAUGAGGAUCACCCAUGUCAGUCAUCAGAGGAUAUACGUGAAUCG , please.
Marked response: 12.3

Exam item: Same lookup for CAGGCAUGUAUAGGAUAUUGGGCUGGACGCGUUGUCGGUCGUUCCAACAUGAGGAUCACCCAUGUCAAGAAGGAUAUGCAUUCG , please.
Marked response: 38.8

Exam item: Same lookup for UGGUUAACAUGACAUGAGGAUCACCCAUGUCUUGGAAUUACAAGAAGGAAGGACACAGGUAGACCUUAGGAUAUUGUGACUUGA , please.
Marked response: 24.6

* * *

# System: MS2 coat protein
# Test name: apparent Kd, MS2 coat protein; higher = weaker binding; RNA-MaP array; FMN 200 µM where present
# Conditions used: designed as: OFF switch for flavin mononucleotide; no ligand
Readout label: apparent Kd (nM)
Respond with the bare value in nM.

Ordered residues | apparent Kd (nM)
CGUCAUUACUCAGGAUAUGCACCAUACUUGAGGGCAGAAGGGAGUACAUGAGGAUCACCCAUGUACUAUGGGCGCCUAAGAGGU | 8.26

Exam item: Which value of apparent Kd has been reported for GGACCGUGAAGAGUUGGCGGUCGGCAGGAUAUGACAUGAGGAUCACCCAUGUGAACUCCAUUGGGUCAGAAGGGCCACGACACA in the records?
Marked response: 37.5

Exam item: Same lookup for CCGACCUUGGCAGGAUAUAGACUCGAAGUUGAUCCCGCCGAUGGAGACAUGAGGAUCACCCAUGUCUAGAAGGGCCAGUCGAAA , please.
Marked response: 14.3

Exam item: Same lookup for UGAAUGUGAGGAUAUGGUGAGUAGUGCCAGAGCGCUGCUCACCAGAAGGCACAUGAGGAUCACCCAUGUACUUG , please.
Marked response: 64.3

Exam item: Same lookup for AAGGAACGAGGAUAUGCAGGUUGAGCUCGAGUUCGACCGGAACAUGAGGAUCACCCAUGUAGAAGGUGUAUCCC , please.
Marked response: 24.1

Exam item: Same lookup for AAGUGUAUAGGAUAUGCGUGGAAAAGGUGUAUUCACUAGCGACAUGAGGAUCACCCAUGUAGAAGGGUAUGUAA , please.
Marked response: 124

Exam item: Same lookup for ACUAUACGAGGAUAUACUGACGGGCCUCAGGCGUCCAUGAGACAUGAGGAUCACCCAUGUAGAAGGCGUAUACU , please.
Marked response: 174

Exam item: Same lookup for GGUGCCAUGUAGAAGGCAGAUCUGAUUCAGAUCUGAGGAUAUACAUGAGGAUCACCCAUGUAAAGGCUCCGCACGAGAGUGCAA , please.
Marked response: 14.9

Exam item: Same lookup for AAAAUGUAAGGAUAUCGUCCCGUAAAUAUCGGGAAAAUUGUCGAGAAGGUACAUGAGGAUCACCCAUGUUCCUG , please.
Marked response: 16.7

Exam item: Same lookup for GGGCCCGGAGGAUAUACAAUGGGCCCGGGAAACCGGGUUUUACAUGAGGAUCACCCAUGUAGAAGGCCGGGUUU , please.
Marked response: 14.5

Exam item: Same lookup for CACGAGUGAGGAUAUAGAGAGGUGAGGCUGAAGUCGCAUAUCUAGAAGGCACAUGAGGAUCACCCAUGUCCCUC , please.
Marked response: 481

Exam item: Same lookup for CAUUAAUAGUAGAAGGGUCAAGUUUUGGGUAGGGCAGGAUAUACGAACAAGAAACAUGAGGAUCACCCAUGUGUCCAUGUCAUG , please.
Marked response: 33.9

Exam item: Same lookup for AGCUGUGGCCGAGGAUAUCUAUCCAAUAUAACCGAAAUAUAAUCGGACAUGAGGAUCACCCAUGUAGAGAAGGCGGUCUCAGCA , please.
Marked response: 19.8

Exam item: Same lookup for GUUAUGUGAGGAUAUAUGUAGGAAACUACAUUAAGGGUAUCACAUGAGGAUCACCCAUGUAGAAGGCGCGUAGC , please.
Marked response: 298

Exam item: Same lookup for AAGUCAGCAGGAUAUGCGAUGUUGUGCUAGAUAGCGUGACCACAUGAGGAUCACCCAUGUAGAAGGGCUGGCUA , please.
Marked response: 30.9
